# System: 772245-204-R-J1-PDC complex spheroid growth
# assayDetails: Anticancer human tumor 772245-204-R-J1-PDC patient-derived rhabdomyosarcoma cell line growth inhibition [Asc]
# recordedConditions: second compound 0.316 µM; first compound 0.03 µM; stronger effect = lower value
I'd appreciate it if you marked entries true (1) when viability, T/C is lower than 90% and false (0) when it is not.

>>> group("CCN1C(C(=O)NC23CCC(C(=O)O)(CC2)CC3)C(c2cccc(Cl)c2F)C2(C(=O)Nc3cc(Cl)ccc32)C12CCCCC2 (stereo unspecified) + Cc1c(S(C)(=O)=O)c(-c2cc(F)cc(N3CCN(c4ccc(NS(=O)(=O)c5ccc(NC(CCN6CCC(C(=O)OCCCP(=O)(O)O)CC6)CSc6ccccc6)c(S(=O)(=O)C(F)(F)F)c5)cc4)CC3)c2)c(-c2ccc(Cl)cc2)n1C(C)C")
"true (1)"

Next:
viability, T/C strictly < 90% for this compound? Cc1nc(N2CCC3(CC2)COC(C)C3N)c(CO)nc1Sc1ccnc(N)c1Cl (stereo unspecified) + Cc1c(S(C)(=O)=O)c(-c2cc(F)cc(N3CCN(c4ccc(NS(=O)(=O)c5ccc(NC(CCN6CCC(C(=O)OCCCP(=O)(O)O)CC6)CSc6ccccc6)c(S(=O)(=O)C(F)(F)F)c5)cc4)CC3)c2)c(-c2ccc(Cl)cc2)n1C(C)C
true (1)

* * *

# Tested on: 772245-204-R-J1-PDC complex spheroid growth
# assayDetails: Anticancer human tumor 772245-204-R-J1-PDC cell line growth inhibition [Asc];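 note: compound exposure lasted seven days; 100% = DMSO vehicle control viability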
# recordedConditions: second compound 1 µM; first compound 0.00316 µM; stronger effect = lower value
molecules and their reported viability, T/C
Give the value in % but do not write % after it.

Examples with answers:
>>> measuredvalue("Cn1ncnc1[C@H]1c2n[nH]c(=O)c3cc(F)cc(c23)N[C@@H]1c1ccc(F)cc1 + Cc1c(S(C)(=O)=O)c(-c2cc(F)cc(N3CCN(c4ccc(NS(=O)(=O)c5ccc(NC(CCN6CCC(C(=O)OCCCP(=O)(O)O)CC6)CSc6ccccc6)c(S(=O)(=O)C(F)(F)F)c5)cc4)CC3)c2)c(-c2ccc(Cl)cc2)n1C(C)C")
37
>>> measuredvalue("O=C(c1ccc(F)c(F)c1Nc1ccc(I)cc1F)N1CC(O)([C@@H]2CCCCN2)C1 + CNC(C)C(=O)NC1CN(S(=O)(=O)c2cccc(S(=O)(=O)N3CCC4CCC(C(=O)NC(c5ccccc5)c5ccccc5)N4C(=O)C(NC(=O)C(C)NC)C3)c2)CCC2CCC(C(=O)NC(c3ccccc3)c3ccccc3)N2C1=O")
100
>>> measuredvalue("O=C(c1ccc(F)c(F)c1Nc1ccc(I)cc1F)N1CC(O)([C@@H]2CCCCN2)C1 + Cc1c(S(C)(=O)=O)c(-c2cc(F)cc(N3CCN(c4ccc(NS(=O)(=O)c5ccc(NC(CCN6CCC(C(=O)OCCCP(=O)(O)O)CC6)CSc6ccccc6)c(S(=O)(=O)C(F)(F)F)c5)cc4)CC3)c2)c(-c2ccc(Cl)cc2)n1C(C)C")
61.1
>>> measuredvalue("NC1CCC(NC2CC2c2ccccc2)CC1 (stereo unspecified) + Cc1c(S(C)(=O)=O)c(-c2cc(F)cc(N3CCN(c4ccc(NS(=O)(=O)c5ccc(NC(CCN6CCC(C(=O)OCCCP(=O)(O)O)CC6)CSc6ccccc6)c(S(=O)(=O)C(F)(F)F)c5)cc4)CC3)c2)c(-c2ccc(Cl)cc2)n1C(C)C")
22.6
>>> measuredvalue("CCN1CCN(Cc2ccc(Nc3ncc(F)c(-c4cc(F)c5nc(C)n(C(C)C)c5c4)n3)nc2)CC1 + CNC(C)C(=O)NC1CN(S(=O)(=O)c2cccc(S(=O)(=O)N3CCC4CCC(C(=O)NC(c5ccccc5)c5ccccc5)N4C(=O)C(NC(=O)C(C)NC)C3)c2)CCC2CCC(C(=O)NC(c3ccccc3)c3ccccc3)N2C1=O")
87.8
>>> measuredvalue("CCN1CCN(Cc2ccc(Nc3ncc(F)c(-c4cc(F)c5nc(C)n(C(C)C)c5c4)n3)nc2)CC1 + Cc1c(S(C)(=O)=O)c(-c2cc(F)cc(N3CCN(c4ccc(NS(=O)(=O)c5ccc(NC(CCN6CCC(C(=O)OCCCP(=O)(O)O)CC6)CSc6ccccc6)c(S(=O)(=O)C(F)(F)F)c5)cc4)CC3)c2)c(-c2ccc(Cl)cc2)n1C(C)C")
53.9
>>> measuredvalue("COc1c(OCCCN2CCOCC2)ccc2c3n(c(=NC(=O)c4cnc(N)nc4)nc12)CCN3 + Cc1c(S(C)(=O)=O)c(-c2cc(F)cc(N3CCN(c4ccc(NS(=O)(=O)c5ccc(NC(CCN6CCC(C(=O)OCCCP(=O)(O)O)CC6)CSc6ccccc6)c(S(=O)(=O)C(F)(F)F)c5)cc4)CC3)c2)c(-c2ccc(Cl)cc2)n1C(C)C")
65.4
>>> measuredvalue("CNC(C)C(=O)NC1CN(S(=O)(=O)c2cccc(S(=O)(=O)N3CCC4CCC(C(=O)NC(c5ccccc5)c5ccccc5)N4C(=O)C(NC(=O)C(C)NC)C3)c2)CCC2CCC(C(=O)NC(c3ccccc3)c3ccccc3)N2C1=O (stereo unspecified) + Cc1c(S(C)(=O)=O)c(-c2cc(F)cc(N3CCN(c4ccc(NS(=O)(=O)c5ccc(NC(CCN6CCC(C(=O)OCCCP(=O)(O)O)CC6)CSc6ccccc6)c(S(=O)(=O)C(F)(F)F)c5)cc4)CC3)c2)c(-c2ccc(Cl)cc2)n1C(C)C")
43
>>> measuredvalue("Cn1ncnc1[C@H]1c2n[nH]c(=O)c3cc(F)cc(c23)N[C@@H]1c1ccc(F)cc1 + CNC(C)C(=O)NC1CN(S(=O)(=O)c2cccc(S(=O)(=O)N3CCC4CCC(C(=O)NC(c5ccccc5)c5ccccc5)N4C(=O)C(NC(=O)C(C)NC)C3)c2)CCC2CCC(C(=O)NC(c3ccccc3)c3ccccc3)N2C1=O")
97.8
>>> measuredvalue("COc1c(OCCCN2CCOCC2)ccc2c3n(c(=NC(=O)c4cnc(N)nc4)nc12)CCN3 + CNC(C)C(=O)NC1CN(S(=O)(=O)c2cccc(S(=O)(=O)N3CCC4CCC(C(=O)NC(c5ccccc5)c5ccccc5)N4C(=O)C(NC(=O)C(C)NC)C3)c2)CCC2CCC(C(=O)NC(c3ccccc3)c3ccccc3)N2C1=O")
86

# evaluate next
What the record says about NC1CCC(NC2CC2c2ccccc2)CC1 (stereo unspecified) + CNC(C)C(=O)NC1CN(S(=O)(=O)c2cccc(S(=O)(=O)N3CCC4CCC(C(=O)NC(c5ccccc5)c5ccccc5)N4C(=O)C(NC(=O)C(C)NC)C3)c2)CCC2CCC(C(=O)NC(c3ccccc3)c3ccccc3)N2C1=O : viability, T/C is 92.9
